- experiment: SK-BR-3 cell growth inhibitors, pilot screen, 24 h, human (AID 572);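 also: compound exposure lasted between 18 and 24 h rather than exactly 24 h; 100% = carrier-treated control wells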
- recorded conditions: SK-BR-3 viability, CellTiter-Glo luminescence, at 10 µM, stronger effect = lower value
quantity kind: viability (%)
Write the number in % without appending the unit.

As a guide, the following entries are already answered.
molecule	viability [%]
C=CCOC(=O)CCC(=O)Nc1cc(OC)nc(OC)n1	112
CCOC(=O)c1ccccc1NC(=O)CSc1nc2c(c(=O)n(C)c(=O)n2C)n1C	100
O=C1CCc2cc(S(=O)(=O)N3CCC(C(=O)NCc4ccccn4)CC3)ccc2N1	81

Input line: Consider the molecule `COc1nc(N2CCOCC2)nc(-n2cccc2)n1` and give its measured viability.
Output line: 94.5

Input line: What about this molecule? `O=C(COc1nnnc2ccccc12)N1CCCc2ccccc21`
Output line: 97

Input line: Could you do the same for `Cc1cc(C)n(-c2ccc(C(=O)Oc3ccc4c(c3)OCO4)cc2)n1` , please?
Output line: 80

Input line: Same question, CC(C)COc1ccc(C2NC(=O)NC2=O)cc1 (stereo unspecified) this time
Output line: 85.5

Input line: And then O=C(OC1CCOC1=O)c1ccc2ccccc2n1 (stereo unspecified) , what is it?
Output line: 98.5

Input line: Try Cc1c[nH]c2cccc(OCC(O)CNC(C)(C)C)c12 (stereo unspecified) next.
Output line: 91.5

Input line: Another molecule: `Cc1nn(-c2ccc(F)cc2)c2sc(C(=O)O)cc12`
Output line: 99

Input line: Try the molecule CCOC(=O)CN1CC23C=CC(O2)C(C(=O)NC2CCCC2)C3C1=O (stereo unspecified)
Output line: 86.5

Input line: One more molecule: `CC(C)(C)OC(=O)N1CCC(C(=O)N[C@H](Cc2ccccc2)C(=O)O)CC1`
Output line: 101

Input line: Same thing, different molecule: `O=C(OCC#CCSc1nnc(-c2ccccc2)o1)c1cccs1`
Output line: 130

Input line: Now consider `O=C(C1CCN(S(=O)(=O)N2CCC3(CC2)OCCO3)CC1)N1CCOCC1` and answer again.
Output line: 98

Input line: Further, for CC(C)(O)C1=NOC(c2ccccc2)C1 (stereo unspecified) ?
Output line: 98

Input line: What about this molecule? `CC(C)(C)c1cc(CCC(=O)N2CCNCC2)c(C(C)(C)C)cc1O`
Output line: 106

Input line: Can you handle COc1ccc(OC)c(C2C(C#N)=C(N)Oc3cc(C)[nH]c(=O)c32)c1 (stereo unspecified) next?
Output line: 92

Input line: # repeat for `Cc1c(C#N)sc2nc(-c3ccccc3)nc(N3CCCC3)c12`
Output line: 85.5

Input line: For `COc1ccc(N2CCN(C(=O)CSc3nnc4n3C(C)(C)Cc3ccccc3-4)CC2)cc1` then?
Output line: 96

Input line: Another: `CCNC(=O)N(C(=O)NCC)n1c(C)nnc1C`
Output line: 100

Input line: Request: `Cc1ccc(Cn2c(SCC(C)C)nc3c2c(=O)n(C)c(=O)n3C)cc1`
Output line: 84.5

###

- experiment: growth inhibitors of H69AR lung tumor, primary screen, human, duplicate replicates (AID 580);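 also: 100% = mean luminescence of untreated wells and 0% = no signal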
- recorded conditions: H69AR lung tumor cells viability, ATP luminescence, 72 h; at 10 µM; stronger effect = lower value
The entries below are paired with their reported viability.
Please respond with the number in % and leave the unit unwritten.

Example cases with answers are listed next.
molecule	quantity kind	numeric result
CN=Cc1cc(-c2ccccc2)sc1O	viability	90
CCN(C(=O)COC(=O)c1cc(C)n(-c2ccc(F)cc2)c1C)C1CCS(=O)(=O)C1 (stereo unspecified)	viability	103
CCC(Sc1ccc2nnc(-c3ccc(F)cc3)n2n1)C(=O)OC (stereo unspecified)	viability	83

Input line: Recorded viability for `O=C(OCC#CCSc1nc2ccccc2s1)c1ccco1` , please?
Output line: 81.8

Input line: Also O=C1CSC(c2cccc(F)c2)N1c1ccccc1F (stereo unspecified) , if possible.
Output line: 97.5

Input line: Another molecule to check: O=S(NCc1ccco1)C12CC3CC(CC(C3)C1)C2 (stereo unspecified)
Output line: 88

Input line: Try this molecule too: COc1ccccc1CN1CC(C(=O)N2CCN(c3ccc(F)cc3)CC2)CC1=O (stereo unspecified)
Output line: 88.8

Input line: Next molecule: CCOC(=O)C1=C(O)C(=O)N(c2ccc(S(N)(=O)=O)cc2)C1c1ccccc1 (stereo unspecified)
Output line: 96.7

Input line: Do the same for `Cc1ccc(-c2nnc3ccc(SCC(=O)NCc4ccco4)nn23)cc1` please
Output line: 93.2

Input line: Subsequent entry: Cc1cc(C)c(C)c(OCC(=O)NCC2CCCO2)c1 (stereo unspecified)
Output line: 100

Input line: Same question for `CCN(CCCNC(=O)C1CCN(S(=O)(=O)c2cccc3nonc23)CC1)Cc1ccccc1` please.
Output line: 92.9

###

- experiment: reversal of MRP1-mediated doxorubicin resistance, pilot screen, H69AR cells, doxorubicin co-treatment (AID 601)
- recorded conditions: H69AR cells + 2 uM doxorubicin, CellTiter-Glo, 72 h; measured here: viability with 2 uM doxorubicin; at 10 µM; stronger effect = lower value
Hi! Just check whether viability is below 90%. Below gives Fulfilled, equal or above gives Not fulfilled.

Example cases with answers are listed next.
structure	classification
COc1ccc(-c2ccc(Nc3ccc(S(=O)(=O)N4CCCC4)cc3)nn2)cc1OC	Fulfilled
Nc1nonc1-c1noc(CCCCCN2C(=O)c3ccccc3C2=O)n1	Not fulfilled

Proceed to the following item.
Input line: viability strictly < 90% for this compound? `Cc1ccc(N2CCN(C(=O)c3ccccc3Br)CC2)c(C)c1`
Output line: Fulfilled

###

- experiment: growth inhibitors of H69AR lung tumor, primary screen, human, duplicate replicates (AID 580);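 also: 100% = mean luminescence of untreated wells and 0% = no signal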
- recorded conditions: H69AR lung tumor cells viability, ATP luminescence, 72 h; at 10 µM; stronger effect = lower value
# viability per record follows
Numbers only here, please. The scale is %.

Below, each entry is followed by its recorded viability result.
molecule	readout units	viability
Cc1cc(S(=O)(=O)NC2CCCCC2)ccc1OCC(=O)NCc1ccccn1	%	99.1
O=C(CN1CCCCCC1)OCCN=C1NS(=O)(=O)c2ccccc21	%	113
NC(=O)CCS(=O)(=O)CCN1CCCCC1	%	93.2
N#Cc1c(N2C(=O)C3C4C=CC(C4)C3C2=O)sc2c1CCC2 (stereo unspecified)	%	90.3
O=C(O)C1CC=CCC1C(=O)Nc1ccc(S(=O)(=O)N2CCCc3ccccc32)cc1 (stereo unspecified)	%	98.7
COC(=O)C1=C(C)NC(C)=C(C(=O)OC)C1c1cc2cc(C)ccc2[nH]c1=O	%	79.4
COCCNc1oc(-c2ccc(C)cc2)nc1C#N	%	85.9
CCOC(=O)Nc1ccc2c(c1)N(C(=O)CN(CC)CC)c1ccccc1C=C2	%	91.4
COc1ccc(-c2nnc(SCC(=O)N3CCCCC3)o2)cc1OC	%	97.5
Cc1nc(NCCNC(=O)c2ccco2)c2c(C)c(C)sc2n1	%	86.5

Input line: What does the record list as viability for N#CC1(c2ccccc2)CCC(=NO)CC1 (stereo unspecified) ?
Output line: 98.1

###

- experiment: reversal of MRP1-mediated doxorubicin resistance, pilot screen, H69AR cells, doxorubicin co-treatment (AID 601)
- recorded conditions: H69AR cells + 2 uM doxorubicin, CellTiter-Glo, 72 h; measured here: viability with 2 uM doxorubicin; at 10 µM; stronger effect = lower value
Each entry below lists one item and its recorded viability value.
// return the numeric value with its unit appended

structure	viability
COCCn1c(SCC(=O)Nc2nnc(C)s2)nnc1-c1c[nH]c2ccccc12	88.6%
Nc1nc(-c2ccccc2Br)cs1	81.8%
CCNC(=O)COc1ccc(Br)cc1Cl	97.6%

Input line: I'd like to know its viability. The molecule in question is `NC(=O)C1CCN(CC(=O)N2c3ccccc3CCc3ccccc32)CC1`
Output line: 92.3%

Input line: Then `O=c1[nH]c(/C(=N\O)c2ccccc2)no1` ?
Output line: 40.7%

Input line: `COc1ccc(NC(=O)CCc2nc(-c3ccccc3F)no2)cc1` , same question.
Output line: 89.1%

###

- experiment: growth inhibitors of H69AR lung tumor, primary screen, human, duplicate replicates (AID 580);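 also: 100% = mean luminescence of untreated wells and 0% = no signal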
- recorded conditions: H69AR lung tumor cells viability, ATP luminescence, 72 h; at 10 µM; stronger effect = lower value
quantity kind: viability (%)
Answer in %, number only, no unit symbol.

A selection of reference data follows.
compound	quantity kind	numeric result
Cc1cc(=O)n2[nH]c(COc3ccccc3)nc2n1	viability	108
COC(=O)c1cc2ccsc2n1CC(=O)Nc1cc(C)cc(C)c1	viability	84.8
Cc1noc(C)c1S(=O)(=O)N1CCCC(C(=O)NCCc2ccc(Cl)cc2)C1 (configuration not stated)	viability	97.1
Cc1nc2ccc(S(=O)(=O)NCC(=O)O)cc2s1	viability	107
CCNC(=O)N1c2ccc(OCC)cc2C(C)=CC1(C)C	viability	89.3
COc1ccc(OC)c(C2=Nn3c(nnc3C3CCCCC3)SC2)c1	viability	78.1

Input line: # lookup: viability of `C/C(=N\O)C(=O)NCc1ccccn1`
Output line: 92.2

Input line: Then this compound: `CCOC(=O)N1CCN(C(=O)COc2ccc(Br)cc2Cl)CC1`
Output line: 93.7

Input line: Same question for `Cc1nnc(NC(=O)c2ccccc2F)s1` please.
Output line: 104

Input line: Param item: `CC1(C)CC(=O)C(C#N)=C(NCCCO)C1`
Output line: 100

Input line: How about `COc1ccc(-c2nnc(SCCC(=O)O)n2-c2ccccc2)cc1` ?
Output line: 95.2

Input line: For `Cn1c(=O)[nH]c(=O)c2c1nc(N(CCO)Cc1ccccc1)n2Cc1ccccc1Cl` then?
Output line: 81.6

Hey, just so you know, these numbers are from PubChem BioAssay.
